# Test system: MS2 coat protein
# Protocol description: apparent KD of MS2 coat protein; designed switch direction (-1 OFF switch, 1 ON switch): -1; higher = weaker reporter binding
# Settings: input ligand: none
Readout name: apparent KD of MS2 coat protein (nM)

INSERT INTO measurements (sequence_record, readout_name, result_number) VALUES
  ('ACAUGAGGAUCACCCAUGUGACCACGAUGGCUGAUGUAGAGACAGGAUAUGUGUGAAUAUCUAUCACAGAAGGGUCUUGACUGG [Deportation 54 - Jieux - Exclusion NG 3] (Eterna round: R96, puzzle: Exclusion NG 3)', 'apparent KD of MS2 coat protein', 31.3),
  ('AAAUUGGUAGAGGAUAUCGUACAGGAAACGGUGCGAGAAGGUUGCACAUGAGGAUCACCCAUGUUAAGUUGCGA [EX6 #45] (Eterna round: R97, puzzle: Exclusion 6)', 'apparent KD of MS2 coat protein', 26.8),
  ('AGCUGUGGCCGAGGAUAUGACAUGAGGAUCACCCAUGUACACGAUUAGGCCUGGUAACAGGCUCAUCAGAAGGCGGUCUCAGCA [Eli eng2 - 017] (Eterna round: R96, puzzle: Exclusion NG 2)', 'apparent KD of MS2 coat protein', 13),
  ('AAGCUGUGAGGAUAUACAUGAGGAUCACCCAUGUUAAGGAAGUCGGGAUUAAUUUGGUGUAGAAGGCGCUUAUU [JR_Ex3_Sub019] (Eterna round: R97, puzzle: Exclusion 3)', 'apparent KD of MS2 coat protein', 48.6),
  ('AGCUGACGAGGAUAUACAUGAGGAUCACCCAUGUUGGUCAAGCGACUUCGGUCGCAAUGUAGAAGGCGUCAGCU [E3/8-A4] (Eterna round: R97, puzzle: Exclusion 3)', 'apparent KD of MS2 coat protein', 430),
  ('GCUAGGCAUGUCAGGAUAUGCUGUACCUUGGUACAGCAGAAGGGACAUGAGGAUCACCCAUGUGCCAACCUAGC [JL-BMX4-4.02] (Eterna round: R97, puzzle: Brourd''s mod of Exclusion 4)', 'apparent KD of MS2 coat protein', 55.9),
  ('AAAAUAAUAAGUUUACGAACAUUUAGAAAAAGGGAUCCAACAUGAGGAUCACCCAUGUAUUAUCAGCAUAAACCCUA [JR_Sensorv2_tov2_Sub1270] (Eterna round: R96, puzzle: Sensor v2, turn-off variant 2)', 'apparent KD of MS2 coat protein', 360),
  ('AGAUUAAAAGUAAGGAUAUGAUGCAGGAAACUGCGUCAGAAGGUACAUGAGGAUCACCCAUGUUAAACUAAUUU [Explosion 6 - Jieux - Brourd''s mod of Exclusion 4] (Eterna round: R97, puzzle: Brourd''s mod of Exclusion 4)', 'apparent KD of MS2 coat protein', 14.4),
  ('AUAAUGUAAGGAUAUCAGUCGUUAAUAAUUUAAUAAUCGACUGAGAAGGUACAUGAGGAUCACCCAUGUGAUCA [E4/8-B1] (Eterna round: R97, puzzle: Exclusion 4)', 'apparent KD of MS2 coat protein', 930);

Data origin, for the record: the supplement of paper PMC9170038
